# Test system: Klebsiella pneumoniae
# ASSAY_CONDITIONS: Concentration 32 ug.mL-1;; ASSAY_TEST Inhibition of Bacterial Growth; detection method Absorption (OD600); MEDIA CAMHB; plate type 384well; NBS; CORNING #3640; time 18 hr
# Description: Antibacterial activity against Klebsiella pneumoniae MDR ATCC 70063 (CO-ADD:GN_003); MIC in CAMBH media using NBS plates, by OD(600)
Results with a measured potency or affinity are listed apart.
MEASURED_METRIC: Inhibition (%)
Record the value in %, omitting the unit from your answer.

Supply measured Inhibition of `COc1cccc(-n2ccn3c(SCc4ccccc4C)nnc3c2=O)c1` in your reply.
8.9

Please list Inhibition recorded for the molecule `CC(C)(C)Sc1ccc2nn(CC(=O)NCc3ccc(Cl)cc3)c(=O)n2n1`
10.39

Identify the reported Inhibition for the following entry. `O=C(Cn1nc2c3sc(N4CCCC4)nc3ncn2c1=O)Nc1cccc(Br)c1`
18.9

***
Please indicate Inhibition recorded for `CSc1ccc(CNC(=O)Cn2nc3c(Oc4ccccc4)nccn3c2=O)cc1`
13.75

Name the recorded Inhibition of the item `Cc1nnc2ccc(S(=O)(=O)N(Cc3cccc(F)c3)c3ccc4c(c3)OCO4)cn12` in your answer.
1.28

###

Each entry below lists one item and its recorded Inhibition value.
# Test system: Candida albicans
# ASSAY_CONDITIONS: Concentration 32 ug.mL-1; ASSAY_TEST Inhibition of Fungal Growth; detection method Absorption (OD530)
# Description: Antifungal activity against Candida albicans ATCC 90028 (CO-ADD:FG_001); MIC in YNB media using NBS plates, by OD630
Potency and affinity values are given separately.
A number alone suffices; assume %.

Give reported Inhibition value for `CC(C)Cn1c(=O)c2sccc2n2c(=O)n(Cc3ccc(Br)cc3)nc12`
-2.24

###

Measured Inhibition accompanies every entry in the list below.
# Test system: Cryptococcus neoformans
# ASSAY_CONDITIONS: Concentration 32 ug.mL-1; ASSAY_TEST Inhibition of Fungal Growth; detection method Resazurin; Absorption (OD600-OD570); plate type 384well; NBS; CORNING #3640
# Description: Antifungal activity against Cryptococcus neoformans H99 ATCC 208821 (CO-ADD:FG_002); MIC in YNB media using NBS plates, by Resazurin OD(600-570)
Measured potencies and affinities stand elsewhere.

Recorded results for 3 compounds are shown here.
Note Inhibition for the compound shown: `COc1ccc(NC(=O)Cn2nc3c4cc(-c5ccc(Cl)cc5)nn4ccn3c2=O)c(OC)c1`
-23.56%

Answer with reported Inhibition of `CCCN(C)c1nccn2c(=O)n(CC(=O)Nc3ccc(F)cc3)nc12`
-8.83%

Please indicate Inhibition recorded for `Cc1ccc(Cl)cc1NC(=O)CSc1nc2ccccc2n2c(C)nnc12`
-21.14%

Moving on to the next compound.
Recall and state the measured Inhibition for `COc1ccccc1-n1ccn2c(SCC(=O)Nc3ccc4c(c3)OCO4)nnc2c1=O` .
-4.47%

###

# System: Cryptococcus neoformans
# ASSAY_CONDITIONS: Concentration 32 ug.mL-1; ASSAY_TEST Inhibition of Fungal Growth; detection method Resazurin; Absorption (OD600-OD570); plate type 384well; NBS; CORNING #3640
Potency and affinity values are given separately.
Assign Y whenever Inhibition does not fall below -10%; assign N whenever it does.

Threshold query (Inhibition >= -10%) on `CCc1cccc(C)c1NC(=O)Cn1nc2ccc(SCc3ccc(Cl)cc3)nn2c1=O`
N

Next up:
Could you tell me if the measured Inhibition of `CCOc1ccc(-n2ccn3c(SCC(N)=O)nnc3c2=O)cc1` reaches -10% or more?
Y

###

# Test system: Cryptococcus neoformans
# ASSAY_CONDITIONS: Concentration 32 ug.mL-1; ASSAY_TEST Inhibition of Fungal Growth; detection method Resazurin; Absorption (OD600-OD570); plate type 384well; NBS; CORNING #3640
Measured potencies and affinities stand elsewhere.
Cut-off -10% on Inhibition, inclusive. At or above means Yes; below means No.

Solved cases below.
Test whether the compound `CCOC(=O)c1ccc(NC(=O)Cn2nc3c4cc(-c5ccc(Cl)cc5)nn4ccn3c2=O)cc1` records Inhibition of -10% or higher.
No

Determine whether this compound has Inhibition no lower than -10%: `COc1cccc(-n2ccn3c(SCC(=O)c4c(C)[nH]c5ccccc45)nnc3c2=O)c1`
Yes

In plain terms: is recorded Inhibition at least -10% for `O=C(CSc1nnc2c(=O)n(-c3ccc(Br)cc3)ccn12)Nc1cccc(F)c1` ?
No

New cases:
Check the entry `Cc1nnc2ccc(S(=O)(=O)N(Cc3cccc(F)c3)c3ccc(F)cc3)cn12` : does Inhibition equal or exceed -10%?
Yes
